Data origin: patent US6037335A

test: Concentration required for 50% death of HB611 cells; format: cell-based; settings: human, read-out: LD50 of HB611 cell
Kindly state CC50 for each of the entries shown.
Answers are plain numbers, in µM.

# compound, measure-unit, reported-measurement
data = [
    ("Nc1ncnc2c1ncn2CCOCP(=O)(OCCOCc1ccccc1)OCCOCc1ccccc1 [Example 16]", "µM", 178),
]

# ---- query compound ----
Data request: Could you share which CC50 value was measured for Nc1ncnc2c1ncn2CCOCP(=O)(OCCOc1ccccc1)OCCOc1ccccc1 [Example 15] ?
Data returned: 174

---

tested on: HBV; test: Inhibition of HBV growth (HBV-DNA synthesis in HB611 cells, southern blotting); format: cell-based; design: dose or concentration left out as unconfirmed; details: Hepatitis B virus, 408 h, DNA recovered day 17
Short version: inhibition at least 90% is y, less is n.

# entry-smiles, tested-on, class-assignment
records = [
    ("CC(=O)OCCOP(=O)(COCCn1cnc2c(N)ncnc21)OCCOC(C)=O", "HBV", "n"),
]

Data request: hey, is inhibition for this one >= 90%? `COCCOP(=O)(COCCn1cnc2c(N)ncnc21)OCCOC`
Data returned: n

Data request: Queued: `Nc1nc(Cl)c2ncn(CCOCP(=O)(OCC(F)(F)F)OCC(F)(F)F)c2n1`
Data returned: y

Data request: Entry `Nc1nc(N)c2ncn(CCOCP(=O)(OCC(F)(F)F)OCC(F)(F)F)c2n1` please
Data returned: y
